Here, each record is paired with measured IC50 data.
Target: CDK4/cyclin D1 (Homo sapiens (Human))
Sequence (P11802 whole entry): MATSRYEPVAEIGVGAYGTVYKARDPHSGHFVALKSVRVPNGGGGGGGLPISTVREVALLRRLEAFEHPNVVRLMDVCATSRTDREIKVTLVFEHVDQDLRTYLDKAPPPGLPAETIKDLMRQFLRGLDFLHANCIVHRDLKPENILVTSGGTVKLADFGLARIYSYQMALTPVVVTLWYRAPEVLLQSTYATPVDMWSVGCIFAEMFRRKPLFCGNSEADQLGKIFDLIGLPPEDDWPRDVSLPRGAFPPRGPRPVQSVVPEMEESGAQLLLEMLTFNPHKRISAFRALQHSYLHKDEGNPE
Sequence (P24385 whole entry partner): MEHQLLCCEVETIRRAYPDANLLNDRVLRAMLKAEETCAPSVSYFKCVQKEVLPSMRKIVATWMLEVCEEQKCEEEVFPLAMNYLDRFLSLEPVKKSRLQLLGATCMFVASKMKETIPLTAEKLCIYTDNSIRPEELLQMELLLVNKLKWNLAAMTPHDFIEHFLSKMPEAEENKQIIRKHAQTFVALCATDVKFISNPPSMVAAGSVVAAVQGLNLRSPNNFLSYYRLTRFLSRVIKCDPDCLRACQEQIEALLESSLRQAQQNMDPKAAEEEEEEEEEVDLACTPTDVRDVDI
Test: CDK4/Cyclin D1 enzymatic activity assay (Lance TR-FRET)
Format: biochemical
Conditions: Table 2; 3 μM ATP; read-out: CDK4
Procedure: A 384-well microtiter Lance TR-FRET (time-resolved-fluorescence energy transfer) endpoint assay was used for CDK4/cyclin D1 kinase activity measurements. The same assay was used for IC50 determination of small molecule inhibitors. […] The resulted solutions were incubated at room temperature for 2 hours before read on the Evision Multilabel Reader (Perkin Elmer, Envision 2102-0010). […]

Example cases with answers are listed next.
Given C[C@@H]1CN(c2ccc(Nc3ncc4cc(C(=O)N(C)C)n(C5CCCC5)c4n3)nc2)CCN1CCO [Example 81] , state its recorded IC50.
10 to 100 nM

What value of IC50 has been reported for the following compound? CC(C)N1CCN(Cc2ccc(Nc3ncc4cc(C(=O)N(C)C)n(C5CCCC5)c4n3)nc2)CC1 [Example 62]
10 to 100 nM

Name the reported IC50 value associated with the compound CN(C)C(=O)c1cc2cnc(Nc3ccc(C(=O)N(C)CCN)cn3)nc2n1C1CCCC1 [Example 41]
1 to 10 nM

For C[C@H](CO)NCc1ccc(Nc2ncc3cc(C(=O)N(C)C)n(C4CCCC4)c3n2)nc1 [Example 66] , what is its reported IC50?
10 to 100 nM

# lookup: IC50 of CN(C)C(=O)c1cc2cnc(Nc3ccc(CN4CCN(C(=O)CN)CC4)cn3)nc2n1C1CCCC1 [Example 65]
10 to 100 nM

New cases:
Name the recorded IC50 for C[C@H]1CN(c2ccc(Nc3ncc4cc(C(=O)N(C)C)n(C5CCCC5)c4n3)nc2)CCN1 [Example 17] .
10 to 100 nM

I have this compound here, C[C@H](O)CN1CCN(c2ccc(Nc3ncc4cc(C(=O)N(C)C)n(C5CCCC5)c4n3)nc2)CC1 [Example 56] , and I need its recorded IC50.
10 to 100 nM

Which IC50 is listed for C[C@H]1CN(Cc2ccc(Nc3ncc4cc(C(=O)N(C)C)n(C5CCCC5)c4n3)nc2)CCN1 [Example 55] ?
10 to 100 nM

---

biological target: CDK4/cyclin D1 (Homo sapiens (Human)); assay: CDK4/Cyclin D1 enzymatic activity assay (Lance TR-FRET); format: biochemical; details: Table 2; 3 μM ATP; read-out: CDK4
Entries and their IC50 values follow.

Below: 3 compounds and their reported IC50.
Entry "CN(C)C(=O)c1cc2cnc(Nc3ccc(N4CCN(CCCO)CC4)cn3)nc2n1C1CCCC1" has what IC50?
0.001 to 0.01 µM

Any idea what its IC50 is? The compound is "CN(C)C(=O)c1cc2cnc(Nc3ccc(C4CCNCC4)cn3)nc2n1C1CCCC1"
0.01 to 0.1 µM

Can you share its IC50? I mean this compound: "CC(C)N1CCC(c2ccc(Nc3ncc4cc(C(=O)N(C)C)n(C5CCCC5)c4n3)nc2)CC1"
0.01 to 0.1 µM

Further cases:
Fill in the blank: the reported IC50 of "CN(C)C(=O)c1cc2cnc(Nc3ccccn3)nc2n1C1CCCC1" is ____.
0.1 to 1 µM

Item under review: "CCN1CCN(c2ccc(Nc3ncc4cc(C(=O)N(C)C)n(C5CCCC5)c4n3)nc2)CC1" . Reported IC50?
0.001 to 0.01 µM

Quick check: IC50 of "CN(C)C(=O)c1cc2cnc(Nc3ccc(N4CC[C@H](O)C4)cn3)nc2n1C1CCCC1" ?
0.01 to 0.1 µM

Name the reported IC50 value associated with the compound "CN(C)CC(=O)N1CCN(c2ccc(Nc3ncc4cc(C(=O)N(C)C)n(C5CCCC5)c4n3)nc2)CC1"
0.001 to 0.01 µM

Given the entry "CN1CCN(Cc2ccc(Nc3ncc4cc(C(=O)N(C)C)n(C5CCCC5)c4n3)nc2)CC1" , report its measured IC50.
0.01 to 0.1 µM

This collection of values is drawn from patent US8962630B2.
